tested on: H460; assay: Chemosensitivity, 96 h continuous exposure, MTT assay; format: cell-based, human; settings: ratio of SI (MCF 10A), H460
Attribute: Selectivity indices relative to MCF10A, Ratio + anion:no anion
// return a plain number; no unit text

Look up Selectivity indices relative to MCF10A, Ratio + anion:no anion: [Cu+2].[Cu+2].[Cu+2].c1ccc(-c2csc(NCCN(CCNc3nc(-c4ccccn4)cs3)CCNc3nc(-c4ccccn4)cs3)n2)nc1.c1ccc(-c2csc(NCCN(CCNc3nc(-c4ccccn4)cs3)CCNc3nc(-c4ccccn4)cs3)n2)nc1 [[L2Cu3]6+] 1

Here is the next molecule: CC(=O)[O-].CC(=O)[O-].CC(=O)[O-].O=P([O-])([O-])[O-].[Zn+2].[Zn+2].[Zn+2].c1ccc(-c2csc(NCCN(CCNc3nc(-c4ccccn4)cs3)CCNc3nc(-c4ccccn4)cs3)n2)nc1.c1ccc(-c2csc(NCCN(CCNc3nc(-c4ccccn4)cs3)CCNc3nc(-c4ccccn4)cs3)n2)nc1 [[L2Zn3(PO4)]3+] 0.129

// query: CC(=O)[O-].CC(=O)[O-].CC(=O)[O-].CC(=O)[O-].CC(=O)[O-].CC(=O)[O-].[Zn+2].[Zn+2].[Zn+2].c1ccc(-c2csc(NCCN(CCNc3nc(-c4ccccn4)cs3)CCNc3nc(-c4ccccn4)cs3)n2)nc1.c1ccc(-c2csc(NCCN(CCNc3nc(-c4ccccn4)cs3)CCNc3nc(-c4ccccn4)cs3)n2)nc1 [[L2Zn3]6+] 1

Record: O=S(=O)([O-])[O-].[Cu+2].[Cu+2].[Cu+2].c1ccc(-c2csc(NCCN(CCNc3nc(-c4ccccn4)cs3)CCNc3nc(-c4ccccn4)cs3)n2)nc1.c1ccc(-c2csc(NCCN(CCNc3nc(-c4ccccn4)cs3)CCNc3nc(-c4ccccn4)cs3)n2)nc1 [[L2Cu3(SO4)]4+] 1.129

Quick one: O=P([O-])([O-])Oc1ccccc1.[Cu+2].[Cu+2].[Cu+2].c1ccc(-c2csc(NCCN(CCNc3nc(-c4ccccn4)cs3)CCNc3nc(-c4ccccn4)cs3)n2)nc1.c1ccc(-c2csc(NCCN(CCNc3nc(-c4ccccn4)cs3)CCNc3nc(-c4ccccn4)cs3)n2)nc1 [[L2Cu3(O3POPh)]4+] 1.487

====

Entries annotated with measured pIC50
system: DLD-1; test: Chemosensitivity, 96 h continuous exposure, MTT assay; assay type: cell-based, human; settings: DLD-1; read-out: Mean IC50 values
// pIC50: -log10(molar conc.)

Examples with their reported pIC50 follow.
* CC(=O)[O-].CC(=O)[O-].CC(=O)[O-].CC(=O)[O-].CC(=O)[O-].CC(=O)[O-].[Zn+2].[Zn+2].[Zn+2].c1ccc(-c2csc(NCCN(CCNc3nc(-c4ccccn4)cs3)CCNc3nc(-c4ccccn4)cs3)n2)nc1.c1ccc(-c2csc(NCCN(CCNc3nc(-c4ccccn4)cs3)CCNc3nc(-c4ccccn4)cs3)n2)nc1 [[L2Zn3]6+] | 6.77
* CC(=O)[O-].CC(=O)[O-].CC(=O)[O-].O=P([O-])([O-])[O-].[Zn+2].[Zn+2].[Zn+2].c1ccc(-c2csc(NCCN(CCNc3nc(-c4ccccn4)cs3)CCNc3nc(-c4ccccn4)cs3)n2)nc1.c1ccc(-c2csc(NCCN(CCNc3nc(-c4ccccn4)cs3)CCNc3nc(-c4ccccn4)cs3)n2)nc1 [[L2Zn3(PO4)]3+] | 6.72
* [Cu+2].[Cu+2].[Cu+2].c1ccc(-c2csc(NCCN(CCNc3nc(-c4ccccn4)cs3)CCNc3nc(-c4ccccn4)cs3)n2)nc1.c1ccc(-c2csc(NCCN(CCNc3nc(-c4ccccn4)cs3)CCNc3nc(-c4ccccn4)cs3)n2)nc1 [[L2Cu3]6+] | 6.88
* O=S(=O)(O)O.[Zn+2].[Zn+2].[Zn+2].c1ccc(-c2csc(NCCN(CCNc3nc(-c4ccccn4)cs3)CCNc3nc(-c4ccccn4)cs3)n2)nc1.c1ccc(-c2csc(NCCN(CCNc3nc(-c4ccccn4)cs3)CCNc3nc(-c4ccccn4)cs3)n2)nc1 [[L2Zn3(SO4)]4+] | 6.47
* O=S(=O)([O-])[O-].[Cu+2].[Cu+2].[Cu+2].c1ccc(-c2csc(NCCN(CCNc3nc(-c4ccccn4)cs3)CCNc3nc(-c4ccccn4)cs3)n2)nc1.c1ccc(-c2csc(NCCN(CCNc3nc(-c4ccccn4)cs3)CCNc3nc(-c4ccccn4)cs3)n2)nc1 [[L2Cu3(SO4)]4+] | 6.19
* O=P(O)(O)Oc1ccccc1.[Zn+2].[Zn+2].[Zn+2].c1ccc(-c2csc(NCCN(CCNc3nc(-c4ccccn4)cs3)CCNc3nc(-c4ccccn4)cs3)n2)nc1.c1ccc(-c2csc(NCCN(CCNc3nc(-c4ccccn4)cs3)CCNc3nc(-c4ccccn4)cs3)n2)nc1 [[L2Zn3(O3POPh)]4+] | 6.64

Recorded pIC50 for O=P([O-])([O-])[O-].[Cu+2].[Cu+2].[Cu+2].c1ccc(-c2csc(NCCN(CCNc3nc(-c4ccccn4)cs3)CCNc3nc(-c4ccccn4)cs3)n2)nc1.c1ccc(-c2csc(NCCN(CCNc3nc(-c4ccccn4)cs3)CCNc3nc(-c4ccccn4)cs3)n2)nc1 [[L2Cu3(PO4)]3+] with DLD-1, please? 6.20

How about O=P([O-])([O-])Oc1ccccc1.[Cu+2].[Cu+2].[Cu+2].c1ccc(-c2csc(NCCN(CCNc3nc(-c4ccccn4)cs3)CCNc3nc(-c4ccccn4)cs3)n2)nc1.c1ccc(-c2csc(NCCN(CCNc3nc(-c4ccccn4)cs3)CCNc3nc(-c4ccccn4)cs3)n2)nc1 [[L2Cu3(O3POPh)]4+] ? 6.41
